IC50 values by entry
test system: KB; experiment: Cytotoxicity against human KB cells; assay type: functional, cell-based
Answer format reminder: number followed by unit.

Prompt line: What does the record list as IC50 for O=C1C=CC[C@H](C[C@@H]2C[C@H]3C[C@](/C=C/c4ccccc4)(Oc4c(C(=O)/C=C/c5ccccc5)c(O)cc(O)c43)O2)O1 ?
Response line: 5 µM

Switching to the query record.
Prompt line: What does the record list as IC50 for O=C1C=C(/C=C/c2ccccc2)O[C@H](C[C@H]2CC=CC(=O)O2)C1 ?
Response line: 3 µM
